Tested on: IL-5
Assay: Human primary Th2 cells, anti-CD3/anti-CD28 activated, IL-5 ELISA
Assay type: cell-based
Settings: human primary Th2 cells, anti-CD3 and anti-CD28 (Table 5)
pIC50: −log10 of the molar value. Where a name gives a salt, the structure may show the parent alone.
measured-endpoint: pIC50

For O=C(O)c1[nH]c2cc(Cl)cc(Cl)c2c1N(Cc1ccccc1)C(=O)c1ccccc1 [Reference Example 81] the molecule record lists pIC50 as 5.15

For O=C(Nc1c(C(=O)O)[nH]c2cc(Cl)cc(Cl)c12)c1ccccc1Cc1ccccc1 [Reference Example 87] the molecule record lists pIC50 as 5.70

For CN(c1c(C(=O)O)[nH]c2cc(Cl)cc(Cl)c12)S(=O)(=O)c1ccccc1 [Reference Example 92] the molecule record lists pIC50 as < 5.00

For CCOC(=O)c1[nH]c2cc(Cl)cc(Cl)c2c1NS(=O)(=O)c1ccccc1 [Example 90] the molecule record lists pIC50 as < 5.00

For CN(C(=O)c1ccccc1)c1c(C(=O)O)[nH]c2cc(Cl)cc(Cl)c12 [Reference Example 77] the molecule record lists pIC50 as < 5.00

For CN(C(=O)c1ccccc1)c1c(C(=O)O)[nH]c2cc(F)ccc12 [Reference Example 86] the molecule record lists pIC50 as < 5.00

For CCOC(=O)c1[nH]c2cc(Cl)cc(Cl)c2c1N(Cc1ccccc1)C(=O)c1ccccc1 [Example 89] the molecule record lists pIC50 as 5.10

For CN(C)CCOC(=O)c1[nH]c2cc(Cl)ccc2c1NC(=O)c1ccccc1 [Example 79] the molecule record lists pIC50 as < 5.00

For CN(C(=O)c1ccccc1)c1c(C(=O)O)[nH]c2cc(Cl)c(Cl)cc12 [Reference Example 84] the molecule record lists pIC50 as < 5.00

For CN(C(=O)c1cccc(F)c1)c1c(C(=O)O)[nH]c2cc(Cl)cc(Cl)c12 [Reference Example 88] the molecule record lists pIC50 as < 5.00

For CCOC(=O)c1[nH]c2ccccc2c1Nc1ccncc1 [Example 11] the molecule record lists pIC50 as < 5.00

For CCOC(=O)c1c(Nc2ccncc2)c2ccccc2n1C [Reference Example 24A] the molecule record lists pIC50 as < 5.00

For O=C(Nc1c(C(=O)O)[nH]c2cc(Cl)ccc12)c1ccccc1 [Reference Example 78] the molecule record lists pIC50 as < 5.00

For O=C(O)c1[nH]c2cc(Cl)cc(Cl)c2c1NS(=O)(=O)c1ccccc1 [Reference Example 91] the molecule record lists pIC50 as < 5.00

For O=C(O)c1[nH]c2ccccc2c1Nc1ccncc1 [Example 28 (maleate salt)] the molecule record lists pIC50 as < 5.00

For CN(C(=O)c1ccc(Cl)cc1)c1c(C(=O)O)[nH]c2cc(Cl)cc(Cl)c12 [Reference Example 80] the molecule record lists pIC50 as < 5.00

For CN(C(=O)CCc1ccccc1)c1c(C(=O)O)[nH]c2cc(Cl)ccc12 [Reference Example 76] the molecule record lists pIC50 as < 5.00

For CCN(C(=O)c1ccccc1)c1c(C(=O)O)[nH]c2cc(Cl)cc(Cl)c12 [Reference Example 85] the molecule record lists pIC50 as < 5.00

---

Experiment: in vitro
Settings: mouse, swiss 3t3 fibroblasts
Excerpt: A third assay utilized in the present invention involves an in vitro cytotoxicity assay. This assay is used to further characterize the compounds in order to assess toxic activities of compounds on contact inhibited, non-dividing 3T3 fibroblasts. […] On day of assay, cells are detached from flasks by trypsinization, washed in medium and counted. […] Results are expressed as percent cytotoxicity, i.e., (mean OD of compound wells - background OD)/ (mean OD of controls - background). […]
Give measured viability at 48 h, 0.001 µM for each item. Keep answers brief.
Kindly provide the numeric value in % only, without the unit symbol.

For O=C(O)c1[nH]c2ccccc2c1Nc1ccncc1 the compound record lists viability at 48 h, 0.001 µM as 124

For CN(Cc1cnc2nc(N)nc(N)c2n1)c1ccc(C(=O)N[C@@H](CCC(=O)O)C(=O)O)cc1 [Methotrexate] the compound record lists viability at 48 h, 0.001 µM as 113

For C[C@@H]1C[C@H]2[C@@H]3CCC4=CC(=O)C=C[C@]4(C)[C@@]3(F)[C@@H](O)C[C@]2(C)[C@@]1(O)C(=O)CO the compound record lists viability at 48 h, 0.001 µM as 100
